assay: Microsomal metabolic stability assay; type: in vitro ADME; conditions: human, liver microsomes, pH 7.4; 0.5 mg/mL microsomal protein, 1 µM test article, 2 mM NADPH; read-out: Human LM T1/2
Some compounds, each annotated with its measured half-life at 1 µM.
Unit h implied. Number only.

{"columns": ["compound", "units_text", "half-life at 1 µM"],
 "data": [
  ["COC(=O)c1cnc(NC(=O)C2CC2)cc1Nc1nn(C)c2ccc(C(O)C(F)(F)F)c(OC)c12 (stereo not shown)", "h", 1.2]
]}

Documented half-life at 1 µM of [2H]C([2H])([2H])NC(=O)c1nnc(NC(=O)C2CC2)cc1Nc1cnn2ccc([C@H](O)C(F)(F)F)c(OC)c12 : 1.36

Documented half-life at 1 µM of [2H]C([2H])([2H])NC(=O)c1cnc(NC(=O)C2CC2)cc1Nc1cnn2ccc(C(C)O)c(OC)c12 (stereo not shown) : 132

Documented half-life at 1 µM of [2H]C([2H])([2H])NC(=O)c1cnc(Nc2ccc(F)cn2)cc1Nc1cnn2ccc([C@H](O)C(F)(F)F)c(OC)c12 : 0.937

Documented half-life at 1 µM of COC(=O)c1cnc(NC(=O)C2CC2)cc1Nc1nsc2ccc(C(OC)C(F)(F)F)c(OC)c12 (stereo not shown) : 1.26

Documented half-life at 1 µM of [2H]C([2H])(C)C(=O)c1cnc(NC(=O)C2CC2)cc1Nc1nn(C)c2ccc(C(O)C(F)(F)F)c(OC)c12 (stereo not shown) : 0.881

Documented half-life at 1 µM of [2H]C([2H])([2H])NC(=O)c1nnc(NC(=O)C2CC2)cc1Nc1nn(C)c2ccc([C@H](OC)C(F)(F)F)c(OC)c12 [Example 51B] : 2.87

###

biological target: TYK2-JH2 domain (Homo sapiens); construct: JAK1-JH2 domain or TYK2-JH2 domain enzyme in assay buffer; experiment: Binding activity test for JH2 domain of TYK2 (Tb-antibody/tracer FRET); conditions: JH2 domain enzyme; 60 min at 25°C, then 4°C overnight; read-out: TYK2 JH2 Binding IC50
Sequence (P29597 589-875 limits assumed): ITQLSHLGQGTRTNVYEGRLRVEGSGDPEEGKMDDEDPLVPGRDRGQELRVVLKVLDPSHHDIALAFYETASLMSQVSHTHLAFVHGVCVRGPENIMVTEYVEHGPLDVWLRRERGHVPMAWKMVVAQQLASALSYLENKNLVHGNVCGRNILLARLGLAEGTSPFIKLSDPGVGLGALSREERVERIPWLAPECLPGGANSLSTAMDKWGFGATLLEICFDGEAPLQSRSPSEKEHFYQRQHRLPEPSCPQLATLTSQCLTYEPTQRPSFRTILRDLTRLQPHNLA
I'd appreciate it if you marked entries Y when IC50 is lower than 0.4 nM and N when it is not.

Examples from the recorded data:
{"columns": ["compound", "subject_of_test", "class_label"],
 "data": [
  ["COC1CN(c2ccc3nc(Nc4cc(NC(=O)C5CC5)ncc4C(C)(F)F)nn3c2)C1 [Example 176]", "TYK2-JH2 domain (Homo sapiens)", "N"],
  ["[2H]C([2H])([2H])n1nc(Nc2cc(NC(=O)C3CC3)ncc2C(=O)OC)c2c(OC)c([C@@H](OC)C(F)(F)F)ccc21 [Example 52B]", "TYK2-JH2 domain (Homo sapiens)", "N"],
  ["[2H]C([2H])([2H])NC(=O)c1cnc(NC(=O)C2CC2)nc1Nc1cnn2ccc(Cl)c(OC)c12 [Example 4]", "TYK2-JH2 domain (Homo sapiens)", "Y"],
  ["COC(=O)c1cnc(NC(=O)C2CC2)cc1Nc1cccc(-c2ncn(C)n2)c1OC [Example 58]", "TYK2-JH2 domain (Homo sapiens)", "Y"],
  ["[2H]C([2H])([2H])NC(=O)c1cnc(NC(=O)C2CC2)cc1Nc1cnn2cnc(OC)c(OC)c12 [Example 35]", "TYK2-JH2 domain (Homo sapiens)", "N"]
]}

# check: IC50 < 0.4 nM for [2H]C([2H])([2H])NC(=O)c1cnc(NC(=O)[C@@H]2C[C@@H]2F)cc1Nc1cnn2ccc(C(O)C(F)(F)F)c(OC)c12 (single isomer, unassigned) [Example 15B]
Y

# check: IC50 < 0.4 nM for CCOC(=O)c1nnc(NC(=O)C2CC2)cc1Nc1cccc(-c2ncn(C)n2)c1OC [Example 86]
N

###

assay: Pharmacokinetic study in rats; format: in vivo; conditions: rat, plasma; Sprague-Dawley rats, oral, 5 mg/kg, solution
reported_metric: AUC (ng·h/mL)
Unit ng·h/mL implied. Number only.

Documented AUC of [2H]C([2H])([2H])NC(=O)c1cnc(NC(=O)C2CC2)cc1Nc1nn(C)c2ccc([C@H](OC([2H])([2H])[2H])C(F)(F)F)c(OC)c12 [Example 55A] : 2950

###

experiment: Brain pharmacokinetic studies in rats; format: in vivo, Sprague-Dawley rats; conditions: Sprague-Dawley, rat; brain, rats, iv, 2 mg/kg, solution; read-out: Brain AUC/Systemic AUC
reported_metric: Kp
Please state the value as a number alone, without comment.

Documented Kp of [2H]C([2H])([2H])CC(=O)c1cnc(NC(=O)C2CC2)cc1Nc1nn(C)c2ccc([C@H](O)C(F)(F)F)c(OC)c12 [Example 54A] : 0.18

###

biological target: JAK1-JH2 domain (Homo sapiens, UniProt P23458); construct: JAK1-JH2 domain or TYK2-JH2 domain enzyme in assay buffer; experiment: Binding activity test for JH2 domain of JAK1 (Tb-antibody/tracer FRET); conditions: JH2 domain enzyme; 60 min at 25°C, then 4°C overnight; read-out: JAK1 JH2 Binding IC50
Sequence (P23458 583-855 limits assumed): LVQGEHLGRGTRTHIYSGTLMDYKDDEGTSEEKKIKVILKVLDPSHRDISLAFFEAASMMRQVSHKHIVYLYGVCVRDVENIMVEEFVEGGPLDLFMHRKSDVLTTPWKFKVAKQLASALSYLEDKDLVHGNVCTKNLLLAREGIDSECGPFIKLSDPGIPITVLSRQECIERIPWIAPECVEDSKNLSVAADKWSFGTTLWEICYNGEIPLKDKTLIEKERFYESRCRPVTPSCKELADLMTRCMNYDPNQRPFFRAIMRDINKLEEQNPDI
The recorded IC50 of each item maps onto one of these classes: group 1 = under 10 nM, group 2 = from 10 nM up to 20 nM, group 3 = 20 nM and over

Examples from the recorded data:
{"columns": ["compound", "class_label"],
 "data": [
  ["[2H]C([2H])([2H])NC(=O)c1cnc(NC(=O)C2CC2)cc1Nc1cnn2ccc(Cl)c(OC)c12", "group 2"],
  ["[2H]C([2H])([2H])NC(=O)c1cnc(NC(=O)C2CC2)cc1Nc1cnn2ccc([C@H](OC)C(F)(F)F)c(OC)c12", "group 1"],
  ["[2H]C([2H])([2H])NC(=O)c1cnc(NC(=O)C2CC23CC3)cc1Nc1cnn2ccc([C@H](O)C(F)(F)F)c(OC)c12 (single isomer, unassigned) [Example 32A]", "group 2"]
]}

Which category does the recorded IC50 put [2H]C([2H])([2H])OC(=O)c1cnc(NC(=O)C2CC2)cc1Nc1ncn2ncc(CC)c2c1OC in?
group 3

Which category does the recorded IC50 put [2H]C([2H])([2H])NC(=O)c1cnc(NC(=O)C2CC23CC3)cc1Nc1cnn2ccc([C@H](O)C(F)(F)F)c(OC)c12 (stereo partly shown) [Example 32] in?
group 3

###

assay: Pharmacokinetic study in rats; format: in vivo; details: rat, plasma; Sprague-Dawley rats, intravenous, 3 mg/kg, solution
reported_metric: Vd (L/kg)
Unit L/kg implied. Number only.

Documented Vd of [2H]C([2H])([2H])NC(=O)c1cnc(NC(=O)C2CC2)cc1Nc1nn(C)c2ccc([C@H](OC([2H])([2H])[2H])C(F)(F)F)c(OC)c12 [Example 55A] : 2.05

###

assay: Pharmacokinetic study in dogs; format: in vivo; conditions: dog, plasma; Beagle dogs, intravenous, 2 mg/kg, solution
reported_metric: Vd

Documented Vd of [2H]C([2H])([2H])NC(=O)c1cnc(NC(=O)C2CC2)cc1Nc1nn(C)c2ccc([C@H](OC([2H])([2H])[2H])C(F)(F)F)c(OC)c12 [Example 55A] : 0.678 L/kg

###

target: UniProtKB P29597
pIC50: −log10 of the molar value.
reported_metric: pIC50

Here is how some compounds turned out for pIC50.
{"columns": ["compound", "value_reported"],
 "data": [
  ["COC(=O)c1cnc(NC(=O)C2CC2)cc1Nc1nn(C)c2ccc([C@H](O)C(F)(F)F)c(OC)c12 [Example 48A]", "< 5.30"],
  ["[2H]C([2H])([2H])NC(=O)c1cnc(Nc2cc(C)nc(C)n2)cc1Nc1cnn2ccc([C@H](O)C(F)(F)F)c(OC)c12", "< 4.70"],
  ["[2H]C([2H])([2H])NC(=O)c1cnc(NC(=O)C2CC2)cc1Nc1cnn2ccc([C@H](O)C(F)(F)F)c(OC)c12", "< 4.70"],
  ["[2H]C([2H])([2H])O[C@@H](c1ccc2c(c(Nc3cc(NC(=O)C4CC4)ncc3C(=O)OC)nn2C)c1OC)C(F)(F)F [Example 50B]", "< 5.30"],
  ["[2H]C([2H])([2H])NC(=O)c1nnc(NC(=O)C2CC2)cc1Nc1cnn2ccc([C@H](O)C(F)(F)F)c(OC)c12", "< 4.70"]
]}

Lab entry: UniProtKB P29597 assay, compound [2H]C([2H])([2H])NC(=O)c1cnc(NC(=O)C2CC2)cc1Nc1cnn2ccc([C@H](OC)C(F)(F)F)c(OC)c12 , pIC50 = < 4.70

Lab entry: UniProtKB P29597 assay, compound [2H]C([2H])([2H])NC(=O)c1cnc(Nc2ccn(C)n2)cc1Nc1cnn2ccc([C@H](O)C(F)(F)F)c(OC)c12 , pIC50 = < 4.70

Lab entry: UniProtKB P29597 assay, compound [2H]C([2H])([2H])NC(=O)c1cnc(NC(=O)C2CC2)cc1Nc1nn(C)c2ccc([C@H](O)C(F)(F)F)c(OC)c12 [Example 49A] , pIC50 = < 5.30

Lab entry: UniProtKB P29597 assay, compound [2H]C([2H])([2H])NC(=O)c1cnc(NC(=O)C2CC2)cc1Nc1nn(C)c2ccc([C@H](OC([2H])([2H])[2H])C(F)(F)F)c(OC)c12 [Example 55A] , pIC50 = < 5.30

Lab entry: UniProtKB P29597 assay, compound [2H]C([2H])([2H])NC(=O)c1cnc(NC(=O)C2CC2)cc1Nc1cnn2ccc([C@@H](O)C(F)(F)F)c(OC)c12 , pIC50 = < 4.70

Data origin, for the record: patent EP4813463A2
